# % Inhibition Thrombin II (30 µM) measurements, system: Human thrombin (Homo sapiens, UniProt P00734)
Lab book: enter the figure in %, no units written.

The reported value for `CN(C)CCNC(=N)c1ccc(CNC(=O)Cn2c(-c3cccc(N)c3)c(Cl)nc(NC3CCC3)c2=O)cc1` in terms of % Inhibition Thrombin II (30 µM) is 5

The reported value for `COC(=O)c1cc(N)cc(-c2c(Cl)nc(NC3CCC3)c(=O)n2CC(=O)NCc2ccc(C(=N)N)cc2)c1` in terms of % Inhibition Thrombin II (30 µM) is 23

The reported value for `CN(C)CC/N=C(\NCCN(C)C)c1ccc(CNC(=O)Cn2c(-c3cccc(N)c3)c(Cl)nc(NC3CCC3)c2=O)cc1` in terms of % Inhibition Thrombin II (30 µM) is 5

The reported value for `Nc1ccc(CNC(=O)Cn2c(-c3cccc(N)c3)c(Cl)nc(NC3CCC3)c2=O)cc1` in terms of % Inhibition Thrombin II (30 µM) is 6

###

molecular target: recombinant soluble tissue factor and recombinant human factor VIIa (TF-VIIa) (Homo sapiens); construct: conversion of coagulation factor VII to VIIa by Xa; purchased American Diagnostica, Greenwich Conn; host or cells: VIIa purchased; soluble TF made in house in E. coli; experiment: TF-VIIa Assay; type: biochemical; details: read-out: IC50 TF-VIIa
Sequence (P08709 61-212 limits assumed): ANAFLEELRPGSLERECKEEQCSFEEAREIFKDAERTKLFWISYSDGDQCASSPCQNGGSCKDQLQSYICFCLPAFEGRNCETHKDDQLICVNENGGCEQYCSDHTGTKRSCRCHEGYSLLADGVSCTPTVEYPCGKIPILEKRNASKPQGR
Sequence (P08709 213-466 limits assumed): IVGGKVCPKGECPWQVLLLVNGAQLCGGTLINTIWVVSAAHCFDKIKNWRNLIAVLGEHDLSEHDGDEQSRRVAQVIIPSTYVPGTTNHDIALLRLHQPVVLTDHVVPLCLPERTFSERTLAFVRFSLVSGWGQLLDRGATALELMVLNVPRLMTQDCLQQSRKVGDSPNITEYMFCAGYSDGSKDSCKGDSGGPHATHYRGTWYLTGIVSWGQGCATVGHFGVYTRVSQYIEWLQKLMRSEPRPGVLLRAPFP
Sequence (P13726 33-251 partner limits assumed): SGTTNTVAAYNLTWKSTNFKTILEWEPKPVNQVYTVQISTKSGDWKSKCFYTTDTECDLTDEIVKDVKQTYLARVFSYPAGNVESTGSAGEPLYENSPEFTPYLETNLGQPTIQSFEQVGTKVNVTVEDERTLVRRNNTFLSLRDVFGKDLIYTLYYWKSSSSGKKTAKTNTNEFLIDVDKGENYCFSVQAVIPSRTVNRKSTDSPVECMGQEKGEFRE
What IC50 was measured for each of the following?
Lab book: enter the figure in nM, no units written.

The reported value for `N=C(NC(=O)OCc1ccccc1)c1ccc(CNC(=O)Cn2c(-c3cccc(N)c3)c(Cl)nc(NC3CCC3)c2=O)cc1` in terms of IC50 is 230

The reported value for `CC(C)Nc1nc(Cl)c(-c2cc(N)cc(C(N)=O)c2)n(CC(=O)NCc2ccc(C(=N)N)cc2)c1=O` in terms of IC50 is 22

The reported value for `N=C(N)c1ccc(COCCn2c(-c3cccc(N)c3)c(Cl)nc(NC3CCC3)c2=O)cc1` in terms of IC50 is 13300

The reported value for `CC(C)Nc1nc(Cl)c(-c2cc(N)cc(C(=O)O)c2)n(CC(=O)NCc2ccc(C(=N)N)cc2)c1=O` in terms of IC50 is 20

###

What % Inhibition TF-VIIa (30 µM) was measured for each of the following?
target: recombinant soluble tissue factor and recombinant human factor VIIa (TF-VIIa) (Homo sapiens); construct: conversion of coagulation factor VII to VIIa by Xa; purchased American Diagnostica, Greenwich Conn; host or cells: VIIa purchased; soluble TF made in house in E. coli; assay: TF-VIIa Assay; format: biochemical; settings: at 30 µM inhibitor

The reported value for `N=C(N)c1ccc(CNC(=O)Cn2c(-c3ccccc3)c(Cl)nc(NCc3ccccn3)c2=O)cc1` in terms of % Inhibition TF-VIIa (30 µM) is 0%

The reported value for `COc1ccc(-c2c(Cl)nc(NCc3ccccc3)c(=O)n2CC(=O)NCc2ccc(C(=N)N)cc2)cc1` in terms of % Inhibition TF-VIIa (30 µM) is 31%

The reported value for `N=C(N)c1ccc(CNC(=O)Cn2c(-c3ccc(-c4ccccc4)cc3)c(Cl)nc(NCCc3cccc(Cl)c3)c2=O)cc1` in terms of % Inhibition TF-VIIa (30 µM) is 10%

The reported value for `N=C(N)NCC#CCNC(=O)Cn1c(-c2ccccc2)cnc(NCCc2ccccc2)c1=O` in terms of % Inhibition TF-VIIa (30 µM) is 5%

The reported value for `Cc1cc(Cl)cc(Cl)c1CNc1nc(Cl)c(-c2ccccc2)n(CC(=O)NCc2ccc(C(=N)N)cc2)c1=O` in terms of % Inhibition TF-VIIa (30 µM) is 27%

The reported value for `Nc1cccc(-c2c(Cl)nc(NC3CCC3)c(=O)n2CC(=O)NCCc2ccccc2)c1` in terms of % Inhibition TF-VIIa (30 µM) is 5% @ 30

The reported value for N=C(N)c1ccc(CNC(=O)Cn2c(-c3ccccc3)c(Cl)nc(NC(Cc3ccccc3)c3ccccc3)c2=O)cc1 (centres unmarked) in terms of % Inhibition TF-VIIa (30 µM) is 25%

The reported value for `N=C(N)c1ccc(CNC(=O)Cn2c(-c3ccccc3)c(Cl)nc(NCc3c(F)cccc3C(F)(F)F)c2=O)cc1` in terms of % Inhibition TF-VIIa (30 µM) is 43%

The reported value for `N=C(N)c1ccc(CNC(=O)Cn2c(-c3ccccc3)c(Cl)nc(NCc3cccc4ccccc34)c2=O)cc1` in terms of % Inhibition TF-VIIa (30 µM) is 38%

The reported value for `N=C(N)c1ccc(CNC(=O)Cn2c(-c3ccccc3)c(Cl)nc(NCc3ccc(Cl)cc3Cl)c2=O)cc1` in terms of % Inhibition TF-VIIa (30 µM) is 45%

The reported value for `COc1ccc(-c2c(Cl)nc(NCCc3ccncc3)c(=O)n2CC(=O)NCc2ccc(C(=N)N)cc2)cc1` in terms of % Inhibition TF-VIIa (30 µM) is 39%

The reported value for `COc1ccc(-c2c(Cl)nc(NCCN3CCOCC3)c(=O)n2CC(=O)NCc2ccc(C(=N)N)cc2)cc1` in terms of % Inhibition TF-VIIa (30 µM) is 11%

The reported value for `N=C(N)c1ccc(CNC(=O)Cn2c(-c3ccc(-c4ccccc4)cc3)c(Cl)nc(NCc3ccncc3)c2=O)cc1` in terms of % Inhibition TF-VIIa (30 µM) is 12%

The reported value for `Cc1cccc(Cl)c1CNc1nc(Cl)c(-c2ccccc2)n(CC(=O)NCc2ccc(C(=N)N)cc2)c1=O` in terms of % Inhibition TF-VIIa (30 µM) is 43%

The reported value for `N=C(N)c1ccc(CNC(=O)Cn2c(-c3ccccc3)c(Cl)nc(NCc3cccc(OC(F)(F)F)c3)c2=O)cc1` in terms of % Inhibition TF-VIIa (30 µM) is 40%

The reported value for `N=C(N)c1ccc(CNC(=O)Cn2c(-c3ccc(C(F)(F)F)cc3)c(Cl)nc(NC3CCC3)c2=O)cc1` in terms of % Inhibition TF-VIIa (30 µM) is 32%

The reported value for `COc1ccc(-c2c(Cl)nc(NCc3ccncc3)c(=O)n2CC(=O)NCc2ccc(C(=N)N)cc2)cc1` in terms of % Inhibition TF-VIIa (30 µM) is 37%

The reported value for `CC(=O)Nc1cccc(-c2c(Cl)nc(NC(C)C)c(=O)n2CC(=O)NCCc2ccc(C(=N)N)cc2)c1` in terms of % Inhibition TF-VIIa (30 µM) is 32%

The reported value for `N=C(N)c1ccc(CNC(=O)Cn2c(-c3ccc(Cl)cc3)c(Cl)nc(NCCN3CCOCC3)c2=O)cc1` in terms of % Inhibition TF-VIIa (30 µM) is 42%

The reported value for `COc1ccc(-c2c(Cl)nc(NCCc3cccnc3)c(=O)n2CC(=O)NCc2ccc(C(=N)N)cc2)cc1` in terms of % Inhibition TF-VIIa (30 µM) is 40%

The reported value for `CC(C)Nc1nc(Cl)c(-c2cccc([N+](=O)[O-])c2)n(CC(=O)NCc2ccc(C(N)=NO)cc2)c1=O` in terms of % Inhibition TF-VIIa (30 µM) is 1%

The reported value for N=C(N)c1ccc(CNC(=O)C(Cc2ccccc2)n2c(-c3ccccc3)c(Cl)nc(NC3CCC3)c2=O)cc1 (centres unmarked) in terms of % Inhibition TF-VIIa (30 µM) is 43%

The reported value for `N=C(N)c1ccc(CNC(=O)Cn2c(-c3ccc(Cl)cc3)c(Cl)nc(NCc3ccncc3)c2=O)cc1` in terms of % Inhibition TF-VIIa (30 µM) is 33%

The reported value for `N=C(N)c1ccc(CNC(=O)Cn2c(-c3ccccc3)c(Cl)nc(NCC(F)(F)F)c2=O)cc1` in terms of % Inhibition TF-VIIa (30 µM) is 48%

The reported value for `N=C(N)c1ccc(CNC(=O)Cn2c(-c3ccccc3)c(Cl)nc(NCc3cc(F)cc(C(F)(F)F)c3)c2=O)cc1` in terms of % Inhibition TF-VIIa (30 µM) is 47%

The reported value for `CCc1c(Cl)nc(NCCc2cccc(Cl)c2)c(=O)n1CC(=O)NCc1ccc(C(=N)N)cc1` in terms of % Inhibition TF-VIIa (30 µM) is 4%

The reported value for `N=C(N)c1ccc(CNC(=O)Cn2c(-c3ccc4c(c3)OCO4)c(Cl)nc(NCCN3CCOCC3)c2=O)cc1` in terms of % Inhibition TF-VIIa (30 µM) is 34%

The reported value for `N=C(N)c1ccc(CNC(=O)Cn2c(-c3ccccc3)c(Cl)nc(NC3Cc4ccccc4C3)c2=O)cc1` in terms of % Inhibition TF-VIIa (30 µM) is 7%

The reported value for `N=C(N)c1ccc(CNC(=O)Cn2c(-c3ccc(-c4ccccc4)cc3)c(Cl)nc(NCCc3cccnc3)c2=O)cc1` in terms of % Inhibition TF-VIIa (30 µM) is 15%

The reported value for `N=C(N)c1ccc(CNC(=O)Cn2c(Cc3ccccc3)c(Cl)nc(NCCc3ccccc3)c2=O)cc1` in terms of % Inhibition TF-VIIa (30 µM) is 41% @ 30

The reported value for `N=C(N)c1ccc(CNC(=O)Cn2c(-c3ccc(-c4ccccc4)cc3)c(Cl)nc(NCCc3ccccc3)c2=O)cc1` in terms of % Inhibition TF-VIIa (30 µM) is 6%

The reported value for `Nc1cccc(-c2c(Cl)nc(NC3CCC3)c(=O)n2CC(=O)NCc2ccccc2)c1` in terms of % Inhibition TF-VIIa (30 µM) is 6% @ 30
